- Test system: LoVo-Dox
- protocol-text: SRB colorimetric cell growth inhibition assay, LoVo-Dox (MDR)
- Format: cell-based
- run-conditions: Homo sapiens, LOVO-DOX; GI=growth inhibition; read-out: GI50 LOVO-DOX
- Experimental: The finality of these assays is to interrupt the growth of an “in vitro” tumor cell culture by means a continued exhibition of the cells to the sample to be testing. A colorimetric type of assay, using sulforhodamine B (SRB) reaction has been adapted for a quantitative measurement of cell growth and viability (following the technique described by P. A. Skehan, et al., J. Natl. Cancer Inst. 1990, 82, 1107-1112). […] The values for mean +/− SD of data from triplicate wells are calculated. […]
Labelling field: enter TRUE if recorded GI50 is less than 2 µM. Enter FALSE if it equals or exceeds that cut-off.

COc1cc(-c2c3c4cc(OC)c(OC(=O)[C@@H](N)C(C)C)cc4oc(=O)c3n3ccc4c(OC(=O)[C@@H](N)C(C)C)c(OC)c(OC)cc4c23)ccc1OC(=O)[C@@H](N)C(C)C [Compound 35]	TRUE
COc1cc(-c2c3c4cc(OC)c(OC(=O)CCc5ccccc5)cc4oc(=O)c3n3ccc4cc(OC(=O)CCc5ccccc5)c(OC)cc4c23)ccc1OC(=O)CCc1ccccc1 [Compound 8]	FALSE
COc1cc2c(cc1OC)-c1c(-c3ccc(OC(=O)[C@H](Cc4ccccc4)NC(=O)OC(C)(C)C)c(OC)c3)c3c4cc(OC)c(OC(=O)[C@H](Cc5ccccc5)NC(=O)OC(C)(C)C)cc4oc(=O)c3n1CC2 [Compound 84]	FALSE
COc1cc2c(cc1O)oc(=O)c1c2c(-c2ccc(OC)c(OC)c2)c2c3cc(OC)c(O)cc3ccn21 [Compound 233]	TRUE
COc1cc2c(cc1O)oc(=O)c1c2c(-c2cccc([N+](=O)[O-])c2)c2c3cc(OC)c(O)cc3ccn21 [Compound 221]	FALSE
COc1cc(-c2c3n(c4c(=O)oc5cc(O)c(OC)cc5c24)CCc2cc(O)c(OC)cc2-3)ccc1O [Compound 109]	FALSE
COc1cc(-c2c3n(c4c(=O)oc5cc(OC(=O)[C@@H](N)CO)c(OC)cc5c24)CCc2c-3cc(OC)c(OC)c2OC(=O)[C@@H](N)CO)ccc1OC(=O)[C@@H](N)CO [Compound 59]	TRUE

Entry source: patent US7396837B2
